Test system: Streptococcus pyogenes
assay.details: Antibacterial activity against Streptococcus pyogenes ERSPy-1 expressing mef by the broth microdilution method
Type: functional
quantity: MIC (µg/mL)

compound	measured.on	quantitative.readout
CC[C@H]1OC(=O)[C@H](C)[C@@H](O[C@H]2C[C@@](C)(OC)[C@@H](O[C@@H]3O[C@H](CO)[C@@H](O)[C@H](O)[C@H]3O)[C@H](C)O2)[C@H](C)[C@@H](O[C@@H]2O[C@H](C)C[C@H](N(C)C)[C@H]2O)[C@](C)(OC)C[C@@H](C)C(=O)[C@H](C)[C@H]2N(CCCCn3cnc4ncccc43)C(=O)O[C@]12C	Streptococcus pyogenes	8
CC[C@H]1OC(=O)[C@H](C)[C@@H](O[C@H]2C[C@@](C)(OC)[C@@H](O[C@@H]3O[C@@H]4COC(c5ccccc5)O[C@H]4[C@H](O)[C@H]3O)[C@H](C)O2)[C@H](C)[C@@H](O[C@@H]2O[C@H](C)C[C@H](N(C)C)[C@H]2O)[C@](C)(OC)C[C@@H](C)C(=O)[C@H](C)[C@H]2N(CCCCn3cnc4cccnc43)C(=O)O[C@]12C (some centres not stated)	Streptococcus pyogenes	0.5
